All values here come from ChEMBL document CHEMBL3352004.

# TARGET UNDER TEST: Sphingosine 1-phosphate receptor 1 (Homo sapiens)
# Sequence (P21453 whole entry): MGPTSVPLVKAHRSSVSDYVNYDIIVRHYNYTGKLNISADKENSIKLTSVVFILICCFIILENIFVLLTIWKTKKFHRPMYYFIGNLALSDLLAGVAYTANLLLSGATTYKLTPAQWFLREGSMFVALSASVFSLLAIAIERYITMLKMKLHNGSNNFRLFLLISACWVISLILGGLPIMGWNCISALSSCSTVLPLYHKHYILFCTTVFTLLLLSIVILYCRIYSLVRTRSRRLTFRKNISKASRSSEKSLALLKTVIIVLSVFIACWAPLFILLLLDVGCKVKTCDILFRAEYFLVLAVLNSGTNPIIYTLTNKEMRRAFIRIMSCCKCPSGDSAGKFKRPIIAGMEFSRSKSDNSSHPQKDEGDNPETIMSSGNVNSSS
# PROTOCOL TEXT: Agonist activity at human S1P1 receptor assessed as cAMP accumulation by HTRF assay relative to S1P
# Type: functional
REPORTED PROPERTY: Emax (%)

• N#Cc1cc(COc2ccc3c(c2)cc2n3CCC2CC(=O)O)ccc1C1CCCC1 (racemic) = 92
• O=C(O)CC1CCn2c1cc1cc(OCc3ccc(C4CCCC4)c(C(F)(F)F)c3)ccc12 (stereo in doubt; 12a) = 97
• CC(C)Oc1ccc(COc2ccc3c(c2)c(Cl)c2n3CC[C@@H]2CC(=O)O)cc1C#N = 94
• CC(C)Oc1ccc(COc2ccc3c(c2)cc2n3CCC2CC(=O)O)cc1C#N (stereo in doubt; 19b) = 104

====

# TARGET UNDER TEST: Sphingosine 1-phosphate receptor 1 (Homo sapiens)
# PROTOCOL TEXT: Agonist activity at human S1P1 receptor assessed as cAMP accumulation by HTRF assay
# Assay type: functional
We begin with a simple list: items and their reported log10(EC50).
REPORTED PROPERTY: log10(EC50) (log10 of the value in nM)

* CC(C)Oc1ccc(COc2ccc3c(c2)c(Cl)c2n3CC[C@@H]2CC(=O)O)cc1C#N | -1.60
* CC(C)Oc1ccc(COc2ccc3c(c2)cc2n3CCC2CC(=O)O)cc1C(F)(F)F (single isomer, unassigned; enantiomer 1) | -1.17
* CC(C)Oc1ccc(COc2ccc3c(c2)cc2n3CCC2CC(=O)O)cc1C#N (stereo in doubt; 19b) | 0.18
* O=C(O)CC1CCn2c1cc1cc(OCc3ccc(C4CCCC4)c(C(F)(F)F)c3)ccc12 (stereo in doubt; 12a) | -1.39
* CC(C)Oc1ccc(COc2ccc3c(c2)cc2n3CCC2CC(=O)O)cc1C#N (racemic) | -0.82
* O=C(O)CC1CCn2c1cc1cc(OCc3ccc(OCC4CC4)c(C(F)(F)F)c3)ccc12 (racemic) | 0.04
* O=C(O)CC1CCn2c1cc1cc(OCc3ccc(C4CCCC4)c(C(F)(F)F)c3)ccc12 (stereo in doubt; 12b) | -0.49
* N#Cc1ccc(COc2ccc3c(c2)cc2n3CCC2CC(=O)O)cc1C(F)(F)F (racemic) | 1.92
* O=C(O)CC1CCn2c1cc1cc(OCc3ccc(C4CCCC4)c(C(F)(F)F)c3)ccc12 (racemic) | -1.02
* CC(C)Oc1ccc(COc2ccc3c(c2)c(Cl)c2n3CC[C@@H]2CC(=O)O)cc1C(F)(F)F | -1.68
* COc1ccc(COc2ccc3c(c2)cc2n3CCC2CC(=O)O)cc1C#N (racemic) | 1.58
* O=C(O)CC1CCn2c1cc1cc(OCc3ccc(OCF)c(C(F)(F)F)c3)ccc12 (racemic) | 0.83
* CC(C)Oc1ccc(COc2ccc3c(c2)cc2n3CCC2CC(=O)O)cc1C(F)(F)F (racemic) | -0.82
* N#Cc1cc(COc2ccc3c(c2)cc2n3CCC2CC(=O)O)ccc1C1CCCC1 (racemic) | -0.31
* CC(C)Oc1ccc(COc2ccc3c(c2)cc2n3CCC2CC(=O)O)cc1C#N (stereo in doubt; 19a) | -0.89
* O=C(O)CC1CCn2c1cc1cc(OCc3ccc(Cl)c(C(F)(F)F)c3)ccc12 (racemic) | 2.18
* CC(C)Oc1ccc(COc2ccc3c(c2)cc2n3CCC2CC(=O)O)cc1C(F)(F)F (single isomer, unassigned; enantiomer 2) | -0.19
